Where do these numbers come from? They come from the RNAGym collection of RNA variant scans (doi:10.1093/nar/gkz1192).

B1: CPEB3 Ribozyme (parent)
chain: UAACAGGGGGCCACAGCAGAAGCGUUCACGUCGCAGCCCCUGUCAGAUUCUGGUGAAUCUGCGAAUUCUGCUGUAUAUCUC

Variants of: B1
Assay: self-cleavage, relative activity (ratio to wild type); higher = more cleavage; in vitro, sequencing
Exercise: for every item that follows, state its recorded self-cleavage.
One number for each entry.

Please supply self-cleavage for each of the following items, keeping them in order.
1. UAACAGGGGGCCACAGCAGAAGCGUUCGCCUCGCAGCCCCUGUCAGAUUCUGGUGAAUCUGCGAAUUCUGCUGUAUAUCUC [A28G G30C]
2. UAACAGGGGGCCACAGCAGAAGCGUUCACGUCGCAGCCCCUGUCAGAUACUGGUGAAUAUGCGAAUUCUGCUGUAUAUCUC [U49A C59A]
3. UAACAGGGGGCCACAGCAGAAGCGUUCACGUCGCAGCCCCUGUCAGAUGCUGGUUAAUCUGCGAAUUCUGCUGUAUAUCUC [U49G G55U]
4. UAACAGGGGGCCACAGCAGAAGCGUUCACGCCGCAGCCACUGUCAGAUUCUGGUGAAUCUGCGAAUUCUGCUGUAUAUCUC [U31C C39A]

[0.32, 0.34, 0.88, 0.18]
